system: PfAP2-LT AP2 domain (GST-tagged); experiment: gcPBM binding intensity (ln(normalized median fluorescence intensity)); higher = stronger DNA binding
The full ranking holds about 25,000 sequences; the median of “ln(normalized median fluorescence intensity)” is about 8.9, and the highest 2% start at about 10. This is one part of a sample in which the highest values are shown more often than they occur.
Attribute measured: gcPBM binding intensity (ln)
Numbers only.

Examples with answers:
>  <Residue sequence>
TGTAAATTTGGCATCACACATAAATAAACATATAAA [CACACA_site4497]

>  <gcPBM binding intensity (ln)>
8.77

$$$$
>  <Residue sequence>
AGAAAGAAAGAATACACACACACATATATATATATC [CACACA_site3744]

>  <gcPBM binding intensity (ln)>
9.95

$$$$

Please go through the list and note gcPBM binding intensity (ln) for each sequence.
1. ACAAAAGGGGAATACACACACATATATAAATAAATA [CACACA_site7111]
2. CAAAAAAACAAACACACACACACACCCATATATATA [CACACA_site3653]
3. ACATGTAATATAATGTGTACATATACAAAGGTATAT [XGTACX_site4145]
4. ATTAAACATACATATACACACACACCCACCCACCCA [CACACA_site8057]
5. TAGAAGCAGAAACACACACACATACATACACATACA [CACACA_site1467]

9.59
10.2
9.34
10.2
9.87

Look at each sequence and report its gcPBM binding intensity (ln).
1. AAAAGGAATTATAGGAAATAAATATATACAAATATA [TGCATGCA_negctrl_site528]
2. CATATAAATAAATACACACACACACGCCTTATAATT [CACACA_site7830]
3. ATAAATTAACATTAAAGTACATTTTAATAAATATTA [XGTACX_site3647]
4. TACATATATATAAATACACACACACCCACCTTATAA [CACACA_site9346]
5. AGTATAAAATTTGGTTGTACATTTTTAAAAAAATTA [XGTACX_site7519]
6. CCCACAAAGGAATATACACACATATATATATATATA [CACACA_site4091]
7. ATTTGGCAGAAACACACACACACACCCACCCACATA [CACACA_site589]
8. AAATTATAATATAATACACACATAAAAAAAAAAAAA [CACACA_site7]

1. 8.69
2. 10.2
3. 8.31
4. 9.88
5. 8.29
6. 9.95
7. 10.2
8. 8.93

Respectfully, I request gcPBM binding intensity (ln) for each entry included below.
1. ATACAAAAGGGGAATACACACACATATATATATATA [CACACA_site8694]
2. CAGTGCCAAATTAGCACACACATATATACATGAATT [CACACA_site2814]
3. AAAAAATTATATAATAATAGAACTATACATTTTATT [GTGCAC_negctrl_site645]
4. ATATTATAGTTATGAACATGCAAACATTACGAAATA [TGCATGCA_site54]
5. TAATTATATAAATACACACACATACACCCAAATAAA [CACACA_site5819]

[10.1, 9.3, 8.44, 8.76, 9.8]
